Target: Carbonic anhydrase 9 (Homo sapiens, UniProt Q16790)
Assay: Inhibition of recombinant human carbonic anhydrase-9 catalytic domain incubated for 15 mins by stopped-flow CO2 hydrase assay
pKi: −log10 of the molar value.
OBSERVABLE: pKi

Below: 5 compounds and their reported pKi.
>>> numeric_result("CC(C)Cc1ccc(C(C)C(=O)Nc2ccc(S(N)(=O)=O)cc2)cc1 (racemic)")
7.86
>>> numeric_result("COc1ccc2cc(C(C)C(=O)NCCCOc3ccc(S(N)(=O)=O)cc3)ccc2c1 (racemic)")
7.74
>>> numeric_result("NS(=O)(=O)c1ccc(CCNC(=O)Cc2ccccc2Nc2c(Cl)cccc2Cl)cc1")
7.36
>>> numeric_result("CC1=C(CC(=O)NCCOc2ccc(S(N)(=O)=O)cc2)c2cc(F)ccc2/C1=C/c1ccc([S+](C)[O-])cc1 (stereo not drawn)")
6.99
>>> numeric_result("CC1=C(CC(=O)NCCCCOc2ccc(S(N)(=O)=O)cc2)c2cc(F)ccc2/C1=C/c1ccc([S+](C)[O-])cc1 (stereo not drawn)")
7.66

P: CC1=C(CC(=O)Nc2ccc(S(N)(=O)=O)cc2)c2cc(F)ccc2/C1=C/c1ccc([S+](C)[O-])cc1 (stereo not drawn)
Q: COc1ccc2c(c1)c(CC(=O)NCCCOc1ccc(S(N)(=O)=O)cc1)c(C)n2C(=O)c1ccc(Cl)cc1
Lowest pKi? choose P or Q Could you answer with the label of the item you picked? Q
(Q: 6.69, P: 7.21)

---

Biological target: Carbonic anhydrase 4 (Homo sapiens)
Test: Inhibition of recombinant human carbonic anhydrase-4 incubated for 15 mins by stopped-flow CO2 hydrase assay
OBSERVABLE: Ki (µM)

Below: 5 compounds and their reported Ki.
>>> numeric_result("NS(=O)(=O)c1ccc(OCCCNC(=O)Cc2ccccc2Nc2c(Cl)cccc2Cl)cc1")
0.673
>>> numeric_result("CC1=C(CC(=O)NCCCOc2ccc(S(N)(=O)=O)cc2)c2cc(F)ccc2/C1=C/c1ccc([S+](C)[O-])cc1 (stereo not given)")
0.811
>>> numeric_result("CC(C)Cc1ccc(C(C)C(=O)NCCCCOc2ccc(S(N)(=O)=O)cc2)cc1 (racemic)")
2.8
>>> numeric_result("CC1=C(CC(=O)Nc2ccc(S(N)(=O)=O)cc2)c2cc(F)ccc2/C1=C/c1ccc([S+](C)[O-])cc1 (stereo not given)")
0.519
>>> numeric_result("COc1ccc2c(c1)c(CC(=O)NCCCCOc1ccc(S(N)(=O)=O)cc1)c(C)n2C(=O)c1ccc(Cl)cc1")
8.14

a: CC(C(=O)NCCc1ccc(S(N)(=O)=O)cc1)c1ccc(-c2ccccc2)c(F)c1 (racemic)
b: CC(C)Cc1ccc(C(C)C(=O)NCCOc2ccc(S(N)(=O)=O)cc2)cc1 (racemic)
Given the listed records, identify the one among a and b with higher Ki. Could you answer with the label of the item you picked? a

---

Biological target: Carbonic anhydrase 12 (Homo sapiens)
Sequence (O43570 whole entry): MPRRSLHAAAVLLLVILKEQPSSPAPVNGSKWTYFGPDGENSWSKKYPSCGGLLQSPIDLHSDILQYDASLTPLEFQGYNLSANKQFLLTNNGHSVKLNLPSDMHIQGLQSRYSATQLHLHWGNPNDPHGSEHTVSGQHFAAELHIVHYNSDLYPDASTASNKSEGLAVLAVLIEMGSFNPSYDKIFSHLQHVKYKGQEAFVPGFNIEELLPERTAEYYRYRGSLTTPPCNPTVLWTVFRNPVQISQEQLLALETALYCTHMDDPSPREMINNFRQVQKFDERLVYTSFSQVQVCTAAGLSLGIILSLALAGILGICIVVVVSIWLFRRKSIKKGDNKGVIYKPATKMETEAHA
Experiment: Inhibition of recombinant human carbonic anhydrase-12 incubated for 15 mins by stopped-flow CO2 hydrase assay
pKi: −log10 of the molar value.
OBSERVABLE: pKi

>>> numeric_result("NS(=O)(=O)c1ccc(OCCCCNC(=O)Cc2ccccc2Nc2c(Cl)cccc2Cl)cc1")
7.03
>>> numeric_result("CC(C(=O)NCCOc1ccc(S(N)(=O)=O)cc1)c1ccc(-c2ccccc2)c(F)c1 (racemic)")
7.16
>>> numeric_result("COc1ccc2cc(C(C)C(=O)NCCCCOc3ccc(S(N)(=O)=O)cc3)ccc2c1 (racemic)")
8.38
>>> numeric_result("COc1ccc2c(c1)c(CC(=O)NCCOc1ccc(S(N)(=O)=O)cc1)c(C)n2C(=O)c1ccc(Cl)cc1")
7.36
>>> numeric_result("CC(C)Cc1ccc(C(C)C(=O)NCCc2ccc(S(N)(=O)=O)cc2)cc1 (racemic)")
7.03

a: COc1ccc2c(c1)c(CC(=O)NCCc1ccc(S(N)(=O)=O)cc1)c(C)n2C(=O)c1ccc(Cl)cc1
b: CC(C(=O)NCCCOc1ccc(S(N)(=O)=O)cc1)c1ccc(-c2ccccc2)c(F)c1 (racemic)
Lowest pKi? choose a or b Could you answer with the label of the item you picked? a

---

Biological target: Carbonic anhydrase 4 (Homo sapiens, UniProt P22748)
Sequence (P22748 whole entry): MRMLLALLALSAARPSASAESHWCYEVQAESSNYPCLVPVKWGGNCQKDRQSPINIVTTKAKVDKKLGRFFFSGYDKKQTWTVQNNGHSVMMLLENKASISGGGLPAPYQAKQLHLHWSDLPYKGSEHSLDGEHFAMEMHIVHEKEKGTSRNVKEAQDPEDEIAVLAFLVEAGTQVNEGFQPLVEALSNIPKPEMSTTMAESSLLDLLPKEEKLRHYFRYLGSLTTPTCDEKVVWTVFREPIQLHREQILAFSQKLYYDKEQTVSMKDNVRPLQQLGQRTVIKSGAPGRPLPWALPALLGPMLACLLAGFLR
Assay: Inhibition of recombinant human carbonic anhydrase-4 incubated for 15 mins by stopped-flow CO2 hydrase assay
OBSERVABLE: Ki (nM)

>>> numeric_result("COc1ccc2cc(C(C)C(=O)NCCCCOc3ccc(S(N)(=O)=O)cc3)ccc2c1 (racemic)")
2690

I: COc1ccc2cc(C(C)C(=O)NCCOc3ccc(S(N)(=O)=O)cc3)ccc2c1 (racemic)
II: COc1ccc2c(c1)c(CC(=O)NCCOc1ccc(S(N)(=O)=O)cc1)c(C)n2C(=O)c1ccc(Cl)cc1
III: COc1ccc2cc(C(C)C(=O)NCCCOc3ccc(S(N)(=O)=O)cc3)ccc2c1 (racemic)
IV: COc1ccc2c(c1)c(CC(=O)Nc1ccc(S(N)(=O)=O)cc1)c(C)n2C(=O)c1ccc(Cl)cc1
Sort the 4 compounds by Ki; largest first, smallest last. Write the labels in rank order as requested. IV, II, III, I
(IV: 4370 nM, II: 1600 nM, III: 220 nM, I: 73.4 nM)

I: CC(C(=O)NCCCOc1ccc(S(N)(=O)=O)cc1)c1ccc(-c2ccccc2)c(F)c1 (racemic)
II: NS(=O)(=O)c1ccc(NC(=O)C2CCn3c(C(=O)c4ccccc4)ccc32)cc1 (stereo not drawn)
Lowest Ki? choose I or II Could you answer with the label of the item you picked? I
